# measured-on: mGluR5 (Rattus norvegicus)
# assay-method-text: pCREB (Ser133) levels in primary cultures of rat cortical neurons
# Assay type: cell-based
# experimental-setup: rat cerebral cortex neurons; in the presence of GET73 1 μM; read-out: EC50 of L-quisqualate, pCREB levels
outcome-measure: EC50 (nM)
Could you give me the number in nM? Just the number is fine.

stdin: Give the reported EC50 for this compound. N[C@@H](Cn1oc(=O)[nH]c1=O)C(=O)O [L-quisqualate]
stdout: 22

====

# measured-on: mGluR5 (Rattus norvegicus, UniProt P31424)
# Sequence (P31424 21-875 limits assumed): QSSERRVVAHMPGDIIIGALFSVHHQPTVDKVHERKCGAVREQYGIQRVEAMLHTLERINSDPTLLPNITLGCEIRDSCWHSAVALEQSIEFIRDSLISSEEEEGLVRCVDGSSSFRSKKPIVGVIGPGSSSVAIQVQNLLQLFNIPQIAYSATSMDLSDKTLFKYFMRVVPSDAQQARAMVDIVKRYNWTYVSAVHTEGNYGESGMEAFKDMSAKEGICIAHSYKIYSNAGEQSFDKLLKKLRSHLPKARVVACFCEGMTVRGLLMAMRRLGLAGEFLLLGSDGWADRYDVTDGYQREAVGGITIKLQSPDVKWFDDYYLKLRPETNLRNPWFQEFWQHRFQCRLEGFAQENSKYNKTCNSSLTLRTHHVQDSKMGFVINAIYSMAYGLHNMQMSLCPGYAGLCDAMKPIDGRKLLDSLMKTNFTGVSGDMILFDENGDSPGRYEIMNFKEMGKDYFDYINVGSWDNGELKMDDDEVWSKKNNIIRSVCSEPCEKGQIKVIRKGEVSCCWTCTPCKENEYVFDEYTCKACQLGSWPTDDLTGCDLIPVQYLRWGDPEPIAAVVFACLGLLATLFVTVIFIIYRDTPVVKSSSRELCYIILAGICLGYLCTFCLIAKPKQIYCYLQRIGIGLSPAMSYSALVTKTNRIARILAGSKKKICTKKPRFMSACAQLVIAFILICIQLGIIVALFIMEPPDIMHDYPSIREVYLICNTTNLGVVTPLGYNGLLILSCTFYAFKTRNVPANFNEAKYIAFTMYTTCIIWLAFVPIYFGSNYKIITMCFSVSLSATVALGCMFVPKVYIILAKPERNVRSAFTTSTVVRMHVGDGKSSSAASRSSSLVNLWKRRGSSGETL
# assay-method-text: Inositol phosphate (phosphatidylinositol) turnover in rat hippocampus slices
# Format: cell-based
# experimental-setup: rat hippocampus slices; in the presence of GET73 1 nM; read-out: EC50 of L-quisqualate, phosphatidylinositol turnover
outcome-measure: EC50 (µM)
Could you give me the number in µM? Just the number is fine.

stdin: Give the reported EC50 for this molecule. N[C@@H](Cn1oc(=O)[nH]c1=O)C(=O)O [L-quisqualate]
stdout: 40

====

# measured-on: UniProtKB P31424
# assay-method-text: pCREB (Ser133) levels in primary cultures of rat cortical neurons
# Format: cell-based
# experimental-setup: rat cerebral cortex neurons; in the presence of GET73 0.1 nM; read-out: EC50 of CHPG, pCREB levels
outcome-measure: pEC50
Quick note: pEC50 values are minus log10 of concentrations in mol/L.

stdin: Give the reported pEC50 for this compound. NC(C(=O)O)c1cc(O)ccc1Cl (racemic) [CHPG, (RS)-2-Chloro-5-hydroxyphenylglycine]
stdout: 3.00

====

# measured-on: mGluR5 (Rattus norvegicus)
# assay-method-text: Inositol phosphate (phosphatidylinositol) turnover in rat hippocampus slices
# Assay type: cell-based
# experimental-setup: rat hippocampus slices; in the presence of GET73 0.1 nM; read-out: EC50 of L-quisqualate, phosphatidylinositol turnover
outcome-measure: EC50 (µM)
Could you give me the number in µM? Just the number is fine.

stdin: Give the reported EC50 for this compound. N[C@@H](Cn1oc(=O)[nH]c1=O)C(=O)O [L-quisqualate]
stdout: 33

====

# measured-on: mGluR5 (Rattus norvegicus, UniProt P31424)
# assay-method-text: Inositol phosphate (phosphatidylinositol) turnover in rat hippocampus slices
# Assay type: cell-based
# experimental-setup: rat hippocampus slices; in the presence of GET73 100 nM; read-out: EC50 of L-quisqualate, phosphatidylinositol turnover
outcome-measure: EC50 (µM)
Could you give me the number in µM? Just the number is fine.

stdin: Give the reported EC50 for this molecule. N[C@@H](Cn1oc(=O)[nH]c1=O)C(=O)O [L-quisqualate]
stdout: 200

====

# measured-on: mGluR5 (Rattus norvegicus)
# assay-method-text: pCREB (Ser133) levels in primary cultures of rat cortical neurons
# Format: cell-based
# experimental-setup: rat cerebral cortex neurons; in the presence of GET73 100 nM; read-out: EC50 of CHPG, pCREB levels
outcome-measure: EC50 (mM)
Could you give me the number in mM? Just the number is fine.

stdin: Give the reported EC50 for this molecule. NC(C(=O)O)c1cc(O)ccc1Cl (racemic) [CHPG, (RS)-2-Chloro-5-hydroxyphenylglycine]
stdout: 5

====

# measured-on: mGluR5 (Rattus norvegicus, UniProt P31424)
# assay-method-text: pCREB (Ser133) levels in primary cultures of rat cortical neurons
# Format: cell-based
# experimental-setup: rat cerebral cortex neurons; in the presence of GET73 10 nM; read-out: EC50 of CHPG, pCREB levels
outcome-measure: EC50 (µM)
Could you give me the number in µM? Just the number is fine.

stdin: Give the reported EC50 for this molecule. NC(C(=O)O)c1cc(O)ccc1Cl (racemic) [CHPG, (RS)-2-Chloro-5-hydroxyphenylglycine]
stdout: 1400
